Tested on: ACHN renal
TEST_NAME: NCI tumour cell line growth inhibition, 48 h
ENDPOINT: TGI

[[record]]
compound = "CN1C(=O)C(=O)c2cc3c(c4c2c1cc1ccccc14)OCO3"
result = "> 100 µM"

[[record]]
compound = "CC(C)=CCC/C(C)=C/CC/C(C)=C/CC/C(=C/CC/C(C)=C\\CC/C(C)=C/CC/C(C)=C/CC/C(C)=C/Cc1cc(O)ccc1O)CO"
result = "34.9 µM"

[[record]]
compound = "C/C=C/C1OC(O)(C(C)C(O)[C@H](C)C2OC(=O)/C(OC)=C/C(C)=C/[C@@H](C)[C@@H](O)[C@@H](C)C(O)C(C)C/C(C)=C/C=C/C2OC)C[C@@H](OC2CC(O)C(OC(N)=O)C(C)O2)C1C (some centres undefined)"
result = "12.1 µM"

[[record]]
compound = "CC(=O)OCC1OC(Oc2cc(C)c(O)cc2C/C=C(\\C)CC/C=C(\\C)CC(=O)CC(C)C)C(O)C(OC(C)=O)C1OC(C)=O (centres undefined)"
result = "44.9 µM"

[[record]]
compound = "Oc1ccc(Cl)cc1CN1CCN(Cc2cc(Cl)ccc2O)C1"
result = "4.25 µM"

[[record]]
compound = "COc1cc(Nc2nc3ccccc3cc2C(=O)Nc2ccc(F)c(F)c2)cc(OC)c1OC"
result = "7.59 µM"

[[record]]
compound = "Clc1ccc(C2Nc3ccccc3C3=NCCN32)cc1 (centres undefined)"
result = "> 100 µM"

[[record]]
compound = "Nc1nn2c(nc(N)c3c(N)[nH]nc32)c1N=Nc1ccc(Br)cc1"
result = "> 100 µM"

[[record]]
compound = "O=C1C(Cl)C(c2ccccc2O)N1n1cnc2ccccc2c1=O (centres undefined)"
result = "> 100 µM"

[[record]]
compound = "COc1ccc2nc3cc([N+](=O)[O-])ccc3c(NCCCN(C)C)c2c1"
result = "3.09 µM"

[[record]]
compound = "CSc1n[n+]2c(s1)SCCC2"
result = "> 100 µM"

[[record]]
compound = "COC(=O)Cc1ccc(Oc2cnc3cc(F)c(F)cc3n2)cc1"
result = "> 100 µM"

[[record]]
compound = "Nc1nc(N)c2cc(NCc3ccc(Cl)c(Cl)c3)ccc2n1"
result = "2.58 µM"

[[record]]
compound = "CCCCCCCCCCCCCCCCOC[C@@H](COC(c1ccccc1)(c1ccccc1)c1ccccc1)O[P+](=S)OC (some centres undefined)"
result = "29 µM"

[[record]]
compound = "Cc1cc(N(CCC#N)S(C)(=O)=O)ccc1C=Nc1ccc(C(=O)NN2C(=O)/C(=C/c3ccc(N(CCC#N)CCC#N)cc3C)N=C2c2cc([N+](=O)[O-])ccc2Cl)cc1"
result = "> 100 µM"

[[record]]
compound = "O=c1c(Cl)c(Cl)c(=O)c2sc3cc(Cl)ccc3[nH]c1=2"
result = "> 100 µM"

[[record]]
compound = "CC/C(CC(=O)CCC(=O)Nc1ccccc1[N+](=O)[O-])=N/NC(=O)C[n+]1ccccc1"
result = "> 100 µM"

[[record]]
compound = "CCOC(=O)/C(C#N)=C/c1ccnc2ccccc12"
result = "> 100 µM"

[[record]]
compound = "O=C(N/N=C1/C(=O)c2c3ccccc3cc3cccc1c23)c1ccccc1"
result = "> 67.4 µM"


Where do these numbers come from? They come from PubChem BioAssay (NCI).
